Please go through the items and note down their binding signal.
ASSAYED SYSTEM: OsWRKY34 (Oryza sativa, UniProt Q0JBA9 1-250)
Sequence (Q0JBA9 entry or part of it): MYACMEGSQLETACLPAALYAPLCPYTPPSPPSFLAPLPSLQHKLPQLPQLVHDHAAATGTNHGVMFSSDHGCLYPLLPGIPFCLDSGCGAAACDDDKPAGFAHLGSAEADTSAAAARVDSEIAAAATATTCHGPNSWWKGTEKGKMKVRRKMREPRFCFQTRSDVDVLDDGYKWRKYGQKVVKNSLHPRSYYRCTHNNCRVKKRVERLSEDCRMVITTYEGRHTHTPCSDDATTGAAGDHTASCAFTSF
ASSAY SUMMARY: protein-binding microarray (RPBM); PBS, 2% BSA, 51.3 ng/ul salmon testes DNA, 50 uM zinc acetate, 200 nM TF, 25 C, 1 h; high values mean tight binding
SETUP CONDITIONS: protein: recombinant; tags: N-terminal polyhistidine and DsRed monomer fusion (pET32a); label: CyDye5-dUTP incorporated in the synthesized complementary strand; 3' TTTTT single-stranded linker to array surface; dsDNA, one strand shown
Whole data set: some 68,000 sequences, median “fluorescence intensity (a.u.)” near 9,100, cut for the highest 2% near 16,000. This is one part of a sample in which the highest values are shown more often than they occur.

Consider the sequence `TTTTTTGGTTGTTGATATGATGTTCTTTTTTCCTCATTCTCGGAGTCACCTAGTGCAG` and give its measured binding signal.
8990 fluorescence intensity (a.u.)

Could you tell me which binding signal is on file for `AGATTGCTTTTCTTACAAGGACGACGCTAACAATAACATCCGGAGTCACCTAGTGCAG` ?
9110 fluorescence intensity (a.u.)

Given `ATATATATATATATATATATATAGAGAGAGAGAGAGAGACCGGAGTCACCTAGTGCAG` , state its recorded binding signal.
8980 fluorescence intensity (a.u.)

Requested field: binding signal. Item: `GCCTTCATCATATTCCCAGCTGGTAACTCTATCCATTGACCGGAGTCACCTAGTGCAG`
16400 fluorescence intensity (a.u.)

// returns reported binding signal for input `ACCATCCAGCGCGTAACCGATTCCCTGTACATTCGGCCGCCGGAGTCACCTAGTGCAG`
9080 fluorescence intensity (a.u.)

Entry `GTGGGCAGATTTAGTTTTAATGGGTGTGGGTACGGAGAGTCGGAGTCACCTAGTGCAG` : reported binding signal = ?
8900 fluorescence intensity (a.u.)

What value of binding signal has been reported for the following sequence? `AGAGGGGAGGGAGGAGGATTATGGTTTTTTTTCTCTAAAACGGAGTCACCTAGTGCAG`
16700 fluorescence intensity (a.u.)

Entry `TTTTTGTTTTCTCAATTCGCGAATTTAATGCTTTTGTGTACGGAGTCACCTAGTGCAG` has what binding signal?
9750 fluorescence intensity (a.u.)

What does the record list as binding signal for `CGACGAGCGAGAGGTAGGTGAGAGAGAGACGGGCGGCGAACGGAGTCACCTAGTGCAG` ?
65100 fluorescence intensity (a.u.)

What does the record list as binding signal for `ATGCCGCTCTATCTCTCTCTCTCTCTCTCTCTCTCTCTCTCGGAGTCACCTAGTGCAG` ?
9760 fluorescence intensity (a.u.)

So what does the record say about binding signal for `TTGAGAGCTGGAGGCGCAGGCTGGGATCGGCGGAGCCATGCGGAGTCACCTAGTGCAG` ?
63200 fluorescence intensity (a.u.)

Reported binding signal, sequence `AGTTTCAGTAGCCTCGCCGATCGACTTGCCACACCGCCGTCGGAGTCACCTAGTGCAG` : ____
9260 fluorescence intensity (a.u.)

What value of measured binding signal is listed for `CTCGTATAGTTAGCTTGGAGGACTGAGCTTTGTGGGTGGGCGGAGTCACCTAGTGCAG` ?
8880 fluorescence intensity (a.u.)

Query (sequence): `TTATGGTTGTTTTCTTCGGTTCTTTGTTTTTTTAAAAAAACGGAGTCACCTAGTGCAG` ; field requested: binding signal
11600 fluorescence intensity (a.u.)

Please report the recorded binding signal for `AAATTAACCACACTCGCGCCGCCATTCTCTTCTTCTTCTTCGGAGTCACCTAGTGCAG` .
20600 fluorescence intensity (a.u.)

Quick one: binding signal for `CCACGCCACGCGCCGCTCTCACTCGGTCACTCTCACTCTTCGGAGTCACCTAGTGCAG` ?
9750 fluorescence intensity (a.u.)

Entry `GATGTGCCAATGGTTTCTTTCTCTTTCTTTCTCTTTAAAACGGAGTCACCTAGTGCAG` has what binding signal?
8910 fluorescence intensity (a.u.)

# lookup: binding signal of `CCCAAATCCATCCAGCCCGTCGCCGCCCGCCGCCCGCCGCCGGAGTCACCTAGTGCAG`
8860 fluorescence intensity (a.u.)

What does the data say about its binding signal? Entry: `TATCCACATACCACCTCTCCATTGGACCACAGTTTCTCTCCGGAGTCACCTAGTGCAG`
8340 fluorescence intensity (a.u.)

Item `TATATATATATATATATATATATATCTGATGCTCTCTTGCCGGAGTCACCTAGTGCAG` has what recorded binding signal?
31700 fluorescence intensity (a.u.)

Return reported binding signal; argument: `TCCTATCCCTACGAGCACTTCCGAAATATTGGACTGACATCGGAGTCACCTAGTGCAG`
8370 fluorescence intensity (a.u.)

Please report the recorded binding signal for `AATAAGACGAAAAGTCAAACGTTTGTCAAAAAGTCAACGGCGGAGTCACCTAGTGCAG` .
8290 fluorescence intensity (a.u.)

Entry under review: `GCGGGATCGCGCGGGCGGCGGCGGCGGCGGGGAGGGGATGCGGAGTCACCTAGTGCAG` . Reported binding signal?
16900 fluorescence intensity (a.u.)

Would you kindly share the measured binding signal for `GGGGTTTGCTATTCTGGCTCTCTATTAAGCTCATAAAAAACGGAGTCACCTAGTGCAG` ?
23500 fluorescence intensity (a.u.)

Look up binding signal: `ATATATATATATATATATATATATATATATATGCGCAGAGCGGAGTCACCTAGTGCAG`
9140 fluorescence intensity (a.u.)

# get_value(readout='binding signal', item= `TTTCATGTTCGTGAAAATTATACATTTTATATGCGCCTTTCGGAGTCACCTAGTGCAG` )
8720 fluorescence intensity (a.u.)

Returns the measured binding signal for the input sequence. Input: `ACACCGGCCGCCGAGCTCGCCTCCTCTCTTGTCGCCCACACGGAGTCACCTAGTGCAG`
10100 fluorescence intensity (a.u.)

// returns reported binding signal for input `CACCGGTTCTTCGCCTTCGTCACCGTCGCCGGCGGCGCCACGGAGTCACCTAGTGCAG`
8450 fluorescence intensity (a.u.)

Can you share its binding signal? I mean this sequence: `AGGCTACACTATTAAACTTGCTCTTCTCAAGCTACTTCAACGGAGTCACCTAGTGCAG`
8190 fluorescence intensity (a.u.)

Request the reported binding signal associated with `TGTATAGTTTAGGGGTGAAGATTTCTGGTTTTGTGGTTAACGGAGTCACCTAGTGCAG`
11500 fluorescence intensity (a.u.)

Looking for the measured binding signal of `CGATCGGGCCGCGGCGCGAGGGAGGGGATCGGTGCGCGCGCGGAGTCACCTAGTGCAG` , can you help?
8060 fluorescence intensity (a.u.)

Returns the measured binding signal for the input sequence. Input: `GATAGGGTTAGGGTTAGGGTTTTCCCTGGTCCGCATCTTCCGGAGTCACCTAGTGCAG`
9320 fluorescence intensity (a.u.)

Any idea what binding signal was measured for `ACTAAACTCTGCCTTCATCATATTCCCAGCTGGTAACTCTCGGAGTCACCTAGTGCAG` ?
10300 fluorescence intensity (a.u.)

Look up binding signal for this sequence: `GGCGGCGGAGGAGGAGGAGGCGCGAGGGGAGGCGAGCATGCGGAGTCACCTAGTGCAG`
8150 fluorescence intensity (a.u.)

Which binding signal is reported for this sequence? `CCGTTCGCCACGTCCATCCGTTTTCTGTGCCATAGGCAGGCGGAGTCACCTAGTGCAG`
9340 fluorescence intensity (a.u.)

Item under review: `CTCTACTATCGATCTTTTTTCCACGTCGGTCGCGGCTTTTCGGAGTCACCTAGTGCAG` . Reported binding signal?
9580 fluorescence intensity (a.u.)

Need binding signal, item `CTCCACTGCTCTGATGCTCTCTCTCTCTCTCTCTTCACGCCGGAGTCACCTAGTGCAG`
10800 fluorescence intensity (a.u.)

* * *

ASSAYED SYSTEM: OsWRKY34 (Oryza sativa, UniProt Q0JBA9 1-250)
ASSAY SUMMARY: protein-binding microarray (RPBM); PBS, 2% BSA, 51.3 ng/ul salmon testes DNA, 50 uM zinc acetate, 200 nM TF, 25 C, 1 h; high values mean tight binding
SETUP CONDITIONS: protein: recombinant; tags: N-terminal polyhistidine and DsRed monomer fusion (pET32a); label: CyDye5-dUTP incorporated in the synthesized complementary strand; 3' TTTTT single-stranded linker to array surface; dsDNA, one strand shown
Whole data set: some 68,000 sequences, median “fluorescence intensity (a.u.)” near 9,100, cut for the highest 2% near 16,000. Many of the other results were omitted from the sample, so the highest values are more common in it than they were.
PARAMETER MEASURED: binding signal

// lookup binding signal for `TCAAAATGTTCGACACCGTTGACTTTTTAACACATGTTTGCGGAGTCACCTAGTGCAG`
14400 fluorescence intensity (a.u.)

Using the record for `TTGACACCGTTGACTTTTTAGCACATGTTTGACCGTTCGTCGGAGTCACCTAGTGCAG` , report its binding signal.
35800 fluorescence intensity (a.u.)

Which value of binding signal has been reported for `ATGGCCGCTGTCTTATGTCGTCTCGTTCAAATAAAATCTCCGGAGTCACCTAGTGCAG` in the records?
8370 fluorescence intensity (a.u.)

binding signal lookup needed for `TGACTTTTTATCATATGTTTGACCGTTCGTCTTATTCAAACGGAGTCACCTAGTGCAG` , thanks.
10900 fluorescence intensity (a.u.)

Entry `TTATCAAATATTCCATCCGTCTTTTTTGATATTTTAATTTCGGAGTCACCTAGTGCAG` has what binding signal?
9840 fluorescence intensity (a.u.)

What measured binding signal goes with `CTGACCACCAACAGGGTCACTGTCGCGTTTGCTCGATACTCGGAGTCACCTAGTGCAG` ?
9920 fluorescence intensity (a.u.)

What measured binding signal goes with `GCCGTTGACTTTTTTAAACATGTTTGACCGTTCGTCTTATCGGAGTCACCTAGTGCAG` ?
45200 fluorescence intensity (a.u.)

Which value of binding signal has been reported for `CGTTGACTTTTTTAAAAGTGTTTGACTGTTCGTCTTTTTTCGGAGTCACCTAGTGCAG` in the records?
30500 fluorescence intensity (a.u.)

Recorded binding signal of `ACGCCGTTGACTTTTTTAAACATGTTTGACTGTTCGTCTTCGGAGTCACCTAGTGCAG` , please.
38200 fluorescence intensity (a.u.)

Look up binding signal for this sequence: `CGTTGACTTTTTATCAAATGTTTGACCGTTCGTCTTATTTCGGAGTCACCTAGTGCAG`
28900 fluorescence intensity (a.u.)

// lookup binding signal for `ATTTTTGTCTTGAGTTAACACCGTCACGTTGCCTTCACGGCGGAGTCACCTAGTGCAG`
9960 fluorescence intensity (a.u.)

Entry under review: `CCTCCTAGTTCCCTCGGCATGCAGACGATCTGCCAGTTTACGGAGTCACCTAGTGCAG` . Reported binding signal?
11700 fluorescence intensity (a.u.)

Recorded binding signal of `GTTTTAAAATGGTTGACACCGTTGACTTTTTAGCACGTGTCGGAGTCACCTAGTGCAG` , please.
30100 fluorescence intensity (a.u.)

So what's the measured binding signal for this one? `ACGCTGTTGATTTTTTTAAACATGTTTGACCGTTCGTCTTCGGAGTCACCTAGTGCAG`
13200 fluorescence intensity (a.u.)

Data request, read-out binding signal, for `AGTGTTAGTTGACTGTTAGTCAAAGGTTAGTTTTTTTCGTCGGAGTCACCTAGTGCAG`
9180 fluorescence intensity (a.u.)

Which measured binding signal value corresponds to `ACACCGCTGACTTTTTAAAACATGTTTTACCGTTCGTCTTCGGAGTCACCTAGTGCAG` ?
13600 fluorescence intensity (a.u.)

Value lookup for binding signal; key = `TGGCTCCTTTTAAGTTATTCTTCCCAAACAGACATGATTTCGGAGTCACCTAGTGCAG`
8660 fluorescence intensity (a.u.)

Bench note: what binding signal did `TTGCATTTGAAGACATGTAGTGTGTAGGGTGGGTTCTATTCGGAGTCACCTAGTGCAG` show?
13500 fluorescence intensity (a.u.)

Field request: binding signal | item: `CTCTCTTCTTTTTATCTTATTCATATGTATTTATAGCTGACGGAGTCACCTAGTGCAG`
10500 fluorescence intensity (a.u.)
